experimental system: T1, Monomeric monkey CD48-mmH (monkey)
T1 construct: Soluble monkey CD48 with a myc-myc-hexa-histidine C-terminal tag; the whole entry is the construct; also called mfCD48-mmH
T1 chain: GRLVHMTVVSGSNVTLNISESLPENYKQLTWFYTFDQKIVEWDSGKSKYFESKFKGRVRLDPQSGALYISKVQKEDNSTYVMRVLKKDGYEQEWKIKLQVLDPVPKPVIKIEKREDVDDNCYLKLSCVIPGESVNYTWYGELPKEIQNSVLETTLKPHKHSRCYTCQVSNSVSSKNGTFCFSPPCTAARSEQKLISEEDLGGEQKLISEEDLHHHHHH
assay summary: SPR (Biacore), antibody captured by anti-Fc, CD48 in solution, 37 C
experimental endpoint: Kd (nM)

>>> numeric_result("H4H1763N (antibody, V domains shown, Human IgG4 Fc (H4H)) VH: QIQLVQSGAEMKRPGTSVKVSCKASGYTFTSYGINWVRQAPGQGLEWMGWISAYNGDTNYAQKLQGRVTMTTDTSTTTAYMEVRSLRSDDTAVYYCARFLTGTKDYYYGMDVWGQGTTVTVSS VL: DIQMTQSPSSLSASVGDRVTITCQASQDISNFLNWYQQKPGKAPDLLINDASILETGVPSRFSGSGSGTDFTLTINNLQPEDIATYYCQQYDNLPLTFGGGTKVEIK")
2.49
>>> numeric_result("H4H1772P (antibody, human IgG4, V domains shown, Human IgG4 Fc (H4H)) VH: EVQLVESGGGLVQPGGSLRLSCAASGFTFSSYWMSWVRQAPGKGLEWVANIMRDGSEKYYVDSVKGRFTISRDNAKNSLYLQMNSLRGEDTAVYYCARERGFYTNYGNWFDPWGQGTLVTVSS VL: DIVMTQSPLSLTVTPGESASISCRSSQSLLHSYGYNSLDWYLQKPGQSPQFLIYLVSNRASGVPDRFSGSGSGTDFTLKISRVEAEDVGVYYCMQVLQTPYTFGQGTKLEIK")
4.53
>>> numeric_result("H4H1770P (antibody, human IgG4, V domains shown, Human IgG4 Fc (H4H)) VH: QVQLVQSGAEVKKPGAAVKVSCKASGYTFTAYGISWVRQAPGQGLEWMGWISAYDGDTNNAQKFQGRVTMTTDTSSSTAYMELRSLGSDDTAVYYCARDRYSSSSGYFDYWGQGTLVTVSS VL: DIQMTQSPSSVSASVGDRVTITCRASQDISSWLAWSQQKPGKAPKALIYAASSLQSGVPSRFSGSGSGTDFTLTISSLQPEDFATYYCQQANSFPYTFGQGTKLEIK")
0.44
>>> numeric_result("H4H1774P (antibody, human IgG4, V domains shown, Human IgG4 Fc (H4H)) VH: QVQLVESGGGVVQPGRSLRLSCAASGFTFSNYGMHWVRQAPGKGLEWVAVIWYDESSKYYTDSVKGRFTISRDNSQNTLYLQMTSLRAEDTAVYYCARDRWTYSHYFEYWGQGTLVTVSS VL: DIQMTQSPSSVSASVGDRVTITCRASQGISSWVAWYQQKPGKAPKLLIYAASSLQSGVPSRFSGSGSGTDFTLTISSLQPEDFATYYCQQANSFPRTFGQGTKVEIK")
1.36
>>> numeric_result("H4H1778P (antibody, human IgG4, V domains shown, Human IgG4 Fc (H4H)) VH: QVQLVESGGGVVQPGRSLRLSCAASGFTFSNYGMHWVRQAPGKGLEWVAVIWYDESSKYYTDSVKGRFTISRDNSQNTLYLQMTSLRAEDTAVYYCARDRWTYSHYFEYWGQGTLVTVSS VL: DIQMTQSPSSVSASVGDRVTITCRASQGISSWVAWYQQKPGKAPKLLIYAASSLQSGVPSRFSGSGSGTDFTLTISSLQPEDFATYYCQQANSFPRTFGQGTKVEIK")
1.34

Source listed as patent US20130230533A1.
